METHOD DESCRIPTION: NCI Yeast Anticancer Drug Screen. Data for the sgs1 strain (AID 173);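 further: 0% = growth of vehicle-only control cultures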
ASSAY CONTEXT: S. cerevisiae sgs1 mutant, at 33.0 µM, hits give high values
This is part of a sample that, as a whole, favours compounds with a hit. Of some 79,000 tested, about 15% had one in any assay.
What growth inhibition was measured for each of the following?
The answer is to be given in %; state only the numeric part.

Qu. // returns reported growth inhibition for input CCN1CCC(O)(c2ccc(Oc3ccc(C)cc3)cc2)C(C(=O)c2ccc(Oc3ccc(C)cc3)cc2)C1 (stereo not given)
Ans. 96

Qu. Repeat for the following compound: c1ccc2nc3c(nc2c1)sc1ccccc13
Ans. 51

Qu. Try CC1(C)CC(=O)C(C(=O)Nc2cccs2)=C(O)C1 next.
Ans. 88

Qu. Query O=[N+]([O-])c1ccc(/C=C\c2ccc3c(c2)OCO3)c([N+](=O)[O-])c1 next
Ans. 19

Qu. Now give it for NC(CS)C(=O)NCCNc1ccc(NCCNC(=O)C(N)CS)c2c1C(=O)c1c(O)ccc(O)c1C2=O (stereo not given) too.
Ans. 84

Qu. // query: O=C(/N=N/C(=O)Oc1ccccc1)Oc1ccccc1
Ans. -27

Qu. Entry CCCCCCCCCCCCCCCCCCNc1nc(=O)n(C2CC(OP(=O)(O)OCC3OC(n4cc(F)c(=O)[nH]c4=O)CC3O)C(CO)O2)cc1F (stereo not given) please
Ans. 22

Qu. For O=S(=O)(c1ccccc1)N1CN2CN(C1)CN(S(=O)(=O)c1ccccc1)C2 then?
Ans. -24

Qu. Again, but for CC(CN(C)C)C(=O)/C=C/c1ccc(Cl)c(Cl)c1 (stereo not given)
Ans. 84

Qu. // repeat for CCOC(=O)/C(=C\c1ccc(F)cc1)C(C)=O and report
Ans. 97

====

METHOD DESCRIPTION: NCI Yeast Anticancer Drug Screen. Data for the sgs1 mgt1 strain (AID 161);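 further: 0% = growth of cultures given vehicle only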
ASSAY CONTEXT: S. cerevisiae sgs1 mgt1 strain, at 50.0 µM (retest, dose inferred, filed as 5.0)
Compounds without any hit were thinned out: in the full panel of roughly 79,000, 15% have a hit. Activity calls are given as the source filed them. Rule as the data show it: active = growth inhibition above about 70%; inactive = the rest.
Output constraint: value belongs to active, inactive

Qu. For CC1(C)C(O)OC(O)C1(C)C (centres undefined) , which call appears in the assay record?
Ans. inactive

Qu. Proceed to Cc1c(Cl)c(C)c(Cl)c(O)c1Cl
Ans. active

Qu. Moving on to Oc1ccc(N=Nc2ccc(Cl)cc2)cc1
Ans. active

Qu. Quick one: O=C(Cc1ccccc1)NNc1nc(NNC(=O)c2ccncc2)nc(Nc2ccc([N+](=O)[O-])cc2)n1
Ans. inactive

Qu. Another molecule to check: CC(C)OP(=O)(OC(C)C)C(=NCCO)NNc1ccc([N+](=O)[O-])cc1
Ans. inactive

Qu. Follow-up item: CC(CC/C(=N/O)c1ccccc1)(CC/C(=N\O)c1ccccc1)[N+](=O)[O-] (centres undefined)
Ans. inactive

Qu. Now the molecule CSC(=S)N/N=C/c1ccccc1
Ans. active

Qu. Again, but for O=C(Nc1ccc(Cl)cc1)c1cc2cc(N=Nc3ccccc3Cl)ccc2oc1=O
Ans. inactive

Qu. Next molecule up: Cc1ccc(Nc2n[nH]c(=S)s2)c(C)c1
Ans. inactive

Qu. Next record, please: CCCCN(CCCC)c1ccc(N=Nc2ccc(S(=O)(=O)O)cc2)cc1
Ans. active

Qu. Now consider Cc1cccc(C)c1NC(=O)C(C#N)C1=C(Cl)C(=O)c2ccccc2C1=O (centres undefined) .
Ans. active

Qu. Check COc1ccc2nc3cccc([N+](=O)[O-])c3c(NCCCCCC(=O)O)c2c1 too.
Ans. active

Qu. Next molecule up: O=C1c2cccc3cccc(c23)C(=O)N1O
Ans. active

Qu. And then O=C1C(=O)N(c2ccccc2)[C@@]2(c3ccccc3)C(=Nc3ccccc3)OC(c3ccccc3)=C12 , what is it?
Ans. active

Qu. Continue with NC(CS)C(=O)NCCNc1ccc(NCCNC(=O)C(N)CS)c2c1C(=O)c1c(O)ccc(O)c1C2=O (centres undefined)
Ans. inactive

Qu. Quick one: COC(=O)C(=O)CC(=O)c1cccc(OC)c1
Ans. inactive

Qu. # repeat for O=[N+]([O-])/C=C/c1cc2ccc3ccccc3c2[nH]1
Ans. active

Qu. Record: O=C1CSC(c2ccccc2)N1c1ccc(-c2ccc(-n3c(-c4ccccc4)nc4ccccc4c3=O)cc2)cc1 (centres undefined)
Ans. inactive

Qu. And for CN(C)N=Nc1ccc(N(C)C)cc1 ?
Ans. inactive

Qu. Now the same for O=C(O)CNC(c1ccccc1)(c1ccccc1)c1ccccc1
Ans. active

Qu. Now this one: CC/C(=C(\c1ccccc1)c1ccc(OCC[N+](C)(C)C)cc1)c1ccccc1
Ans. active

Qu. Note, next up: CCN(CC)CCNc1ccc2nc(C)n3c4ccc(OC)cc4c(=O)c1c23
Ans. inactive

Qu. For CCC1(O)C(=O)OCc2c1cc1n(c2=O)Cc2cc3c(N)cccc3nc2-1 (centres undefined) then?
Ans. inactive

Qu. Also need O=c1c2ccccc2nc(-c2cccc([N+](=O)[O-])c2)n1O , thanks.
Ans. active

Qu. Further, for CCN(CC)CC(=O)c1ccc2cc(Cl)c3ccccc3c2c1 ?
Ans. active

Qu. Next record, please: CCCCCCCCCCCCCCCCCCNc1nc(=O)n(C2CC(OP(=O)(O)OCC3OC(n4cc(F)c(=O)[nH]c4=O)CC3O)C(CO)O2)cc1F (centres undefined)
Ans. active

Qu. Follow-up entry: O=S(=O)(c1cccc(C(F)(F)F)c1)N1c2ccccc2-n2cccc2C1c1cccnc1 (centres undefined)
Ans. active

Qu. How about this molecule: COc1ccc(/C=C2\SC(=S)N(/C=C3\C(=O)N(c4ccccc4)N=C3C)C2=O)cc1OC
Ans. active

Qu. Also need CCC(OC(C)=O)C1CC(C(C)C)CCC1C (centres undefined) , thanks.
Ans. inactive

Qu. Follow-up entry: CN1C(=O)C(CC(=O)O)NC1=S (centres undefined)
Ans. inactive

Qu. How about NC(CCCCCCCCCCCCC(N)C(=O)c1ccccc1)C(=O)c1ccccc1 (centres undefined) ?
Ans. active

Qu. Please give the result for CO[C@@]1([C@@H](Cl)c2ccccc2)C(=O)N(C)/C(=C\c2ccccc2)C(=O)N1C too.
Ans. active

Qu. Do the same for O=C1Nc2ccc(Br)cc2C1=Nc1ccc(Cl)cc1 please
Ans. active

Qu. Also need Cc1ccc(S(=O)(=O)NC(=O)C2C(=O)CC3(CCCCC3)CC2=O)cc1 , thanks.
Ans. inactive

Qu. Field entry: CC1=CC(=C(c2ccc(N)c(C)c2)c2ccc(N)c(C)c2)C=CC1=N
Ans. active

Qu. // query: CC(=O)N1C=Cc2c(c(C)c3c([nH]c4ccccc43)c2C)C1
Ans. active

Qu. Also O=C1c2ccccc2-c2cc3ccccc3c(=O)n21 , if possible.
Ans. inactive

Qu. Field entry: CC(=O)/C(=C\c1ccc(Cl)c(Cl)c1)C(=O)C(C)CN(C)C (centres undefined)
Ans. active

Qu. Input Clc1ccc(/C(=C\c2ccccc2)Cn2ccnc2)cc1
Ans. active

Qu. Repeat for the following molecule: CCOP(=O)(OCC)/C(C#N)=C/c1ccc(-c2ccc(F)cc2F)o1
Ans. active

Qu. Request: CCCNC(=O)OCc1c(COC(=O)NCCC)c(-c2ccc(Cl)c(Cl)c2)n2c1CCC2
Ans. inactive

Qu. Also CCN(CC)CCC(=O)Nc1ccc2sc3ccccc3c(=O)c2n1 ?
Ans. inactive

Qu. How about CC(C)Cc1ncc(CCCN=C(N)N)[nH]c1=O ?
Ans. inactive

Qu. Subsequent entry: Cc1ccc(NC(=O)CCC(=O)C(C)C(=O)c2ccccc2)c(C)c1 (centres undefined)
Ans. inactive

====

METHOD DESCRIPTION: NCI Yeast Anticancer Drug Screen. Data for the mlh1 rad18 strain (AID 175)
ASSAY CONTEXT: S. cerevisiae mlh1 rad18 strain growth inhibition; at 50.0 µM (retest, dose inferred, filed as 5.0); hits give high values
The panel holds about 79,000 compounds, 15% with a hit somewhere; the sample as a whole holds those more often.
Short version: growth inhibition at least 80% is true, less is false.

Qu. Can O=C1/C(=C/c2ccc(Cl)c(Cl)c2)CNC/C1=C\c1ccc(Cl)c(Cl)c1 be said to have growth inhibition at or above 80%?
Ans. true

Qu. Can you check COc1ccc2nc3cccc([N+](=O)[O-])c3c(NCCNCCN(C)C)c2c1 next?
Ans. true

Qu. Similarly, CC(=O)CC(c1ccccc1)c1c(O)c2ccccc2oc1=O (stereo unspecified) ?
Ans. true

Qu. Same for COc1cc2c(cc1O)[C@H](C)C(c1ccccc1OC)O2 (stereo partly specified)
Ans. false

Qu. // next record Cc1c(Cl)c(C)c(Cl)c(O)c1Cl
Ans. true

Qu. Input CN(C)/C(=N/C(=S)Nc1ccccc1)SCc1ccccc1
Ans. false

Qu. Same question, c1c[nH]c(CN2CCN(Cc3ncc[nH]3)CC2)n1 this time
Ans. true

Qu. Record: CCCCN(CCCC)c1ccc(N=Nc2ccc(S(=O)(=O)O)cc2)cc1
Ans. true

Qu. Note, next up: NC(=S)N/N=C1\c2ccccc2CCC1CCC1(O)CCc2ccccc2C1=O (stereo unspecified)
Ans. true

Qu. Now give it for Cc1cc(Cl)ccc1NC(=O)/C(Cl)=C(/Cl)C(=O)O too.
Ans. false

Qu. Would you mind doing CC(=O)/C(=C\c1ccc(Cl)c(Cl)c1)C(=O)C(C)CN(C)C (stereo unspecified) as well?
Ans. true
